Would you kindly list remaining activity at 10 µM for each of these molecules?
target: His6-PDK1 (aa 52-556) (Homo sapiens, UniProt O15530); construct: 15 μL His6-PDK1 (aa 52-556) 3.33 ng/well); host or cells: baculovirus-infected insect cells; assay: PDK1 kinase assay III (with Tween 20); type: biochemical; details: compound at 10 μM; PDK1 kinase assay III (values without asterisk); read-out: % CTL (residual activity of the enzyme relative to DMSO control)
Numbers only, in %.

For every item in the list below, what is its measured remaining activity at 10 µM?
1. CN1CCC(N(C)c2ccc(Nc3ncc4c(F)c(/C=C/CNC(=O)c5cncn(Cc6ccc(F)c(F)c6)c5=O)ccc4n3)cc2)CC1
2. CN1CCC(Nc2ccc(Nc3ncc4cc(C#CCNC(=O)c5nccn(Cc6ccc(F)c(F)c6)c5=O)ccc4n3)cc2F)CC1
3. Cc1c[nH]c(/C=C2\C(=O)Nc3cc(/C=C/CNC(=O)c4c(C)n(C)n(Cc5ccc(F)c(F)c5)c4=O)ccc32)n1
4. Cc1c(C(=O)NCC#Cc2ccc3nc(Nc4ccc(C(=O)NCCCO)cc4)ncc3c2)c(=O)n(Cc2ccc(F)c(F)c2)n1C
5. O=C(NCc1ccc(-c2cnc3[nH]ccc3c2)s1)c1cncn(Cc2ccc(F)c(F)c2)c1=O
6. COc1ccc(Nc2ncc3cc(/C=C/CNC(=O)c4cncn(Cc5ccc(F)c(F)c5)c4=O)ccc3n2)cc1

Solution:
1. 13.9
2. 14.9
3. 15.7
4. 15.2
5. 24.4
6. 13.8

Exercise: Specify remaining activity at 10 µM for CNc1ncc2cc(C#CCNC(=O)c3c(C)n(C)n(Cc4ccc(F)c(F)c4)c3=O)ccc2n1 and stop.
Solution: 14.9

* * *

Biological target: His6-PDK1 (aa 52-556) (Homo sapiens)
Construct: 15 μL His6-PDK1 (aa 52-556) 3.33 ng/well); host or cells: baculovirus-infected insect cells
Sequence (O15530 52-556): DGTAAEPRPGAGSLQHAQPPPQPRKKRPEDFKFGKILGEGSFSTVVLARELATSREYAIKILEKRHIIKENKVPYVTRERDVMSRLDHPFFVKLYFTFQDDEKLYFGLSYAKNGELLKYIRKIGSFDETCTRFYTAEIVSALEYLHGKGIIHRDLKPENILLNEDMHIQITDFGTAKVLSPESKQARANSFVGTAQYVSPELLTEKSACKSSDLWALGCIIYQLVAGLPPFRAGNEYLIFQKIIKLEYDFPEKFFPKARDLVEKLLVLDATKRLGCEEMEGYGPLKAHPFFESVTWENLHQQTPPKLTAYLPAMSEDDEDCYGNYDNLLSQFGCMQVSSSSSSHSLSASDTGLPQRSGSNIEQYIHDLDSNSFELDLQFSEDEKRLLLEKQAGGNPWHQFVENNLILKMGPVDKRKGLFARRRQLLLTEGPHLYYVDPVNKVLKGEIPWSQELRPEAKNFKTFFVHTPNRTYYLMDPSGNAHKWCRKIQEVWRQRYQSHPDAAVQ
Assay: PDK1 kinase assay III (with Tween 20)
Assay type: biochemical
Conditions: compound at 10 μM; PDK1 kinase assay III (values without asterisk); read-out: % CTL (residual activity of the enzyme relative to DMSO control)
result type: remaining activity at 10 µM (%)
Give bare numbers, in %.

Observe how each entry below is paired with its result.
{"molecule": "Cc1c(C(=O)NCC#Cc2ccc3nc(Nc4ccc(CN(C)C)cc4)ncc3c2)c(=O)n(Cc2ccc(F)c(F)c2)n1C", "target of assay": "His6-PDK1 (aa 52-556) (Homo sapiens)", "result type": "remaining activity at 10 µM", "value unit": "%", "recorded result": 13.7}
{"molecule": "Cc1c(C(=O)NC/C=C/c2ccc3nc(Nc4ccccc4)ncc3c2)c(=O)n(Cc2ccc(F)c(F)c2)n1C", "target of assay": "His6-PDK1 (aa 52-556) (Homo sapiens)", "result type": "remaining activity at 10 µM", "value unit": "%", "recorded result": 13.6}
{"molecule": "CC(/C=C/c1ccc2nc(Nc3ccc(CN(C)C)cc3)ncc2c1)NC(=O)c1cncn(Cc2ccc(F)c(F)c2)c1=O (centres unmarked)", "target of assay": "His6-PDK1 (aa 52-556) (Homo sapiens)", "result type": "remaining activity at 10 µM", "value unit": "%", "recorded result": 19}

For every item in the list below, what is its measured remaining activity at 10 µM?
1. Cc1c(C(=O)NC/C=C/c2cc(OC3CCNC3)c3nc(Nc4ccc(N5CCOCC5)cc4)ncc3c2)c(=O)n(Cc2ccc(F)c(F)c2)n1C (centres unmarked)
2. Cc1c(C(=O)NCC#Cc2cc3cnc(Nc4ccc(N5CCOCC5)cc4)nc3n(C(C)C)c2=O)c(=O)n(Cc2ccc(F)c(F)c2)n1C
3. CN(C)Cc1ccc(Nc2ncc3cc(N4CC(NC(=O)c5cncn(Cc6ccc(F)c(F)c6)c5=O)C4)ccc3n2)cc1
4. CN(C)Cc1ccc(Nc2ncc3cc(C#CCNC(=O)c4cc(Cl)nn(Cc5ccc(F)c(F)c5)c4=O)ccc3n2)cc1
5. O=C(NC/C=C/c1ccc2nc(Nc3ccccc3)ncc2c1)c1cncn(Cc2ccc(F)c(F)c2)c1=O
6. Cc1cccc(Nc2ncc3cc(C#CCNC(=O)c4c(C)n(C)n(Cc5ccc(F)c(F)c5)c4=O)ccc3n2)c1

Solution:
[10.3, 14.6, 20.2, 13.8, 19.1, 20]

* * *

Would you kindly list remaining activity at 10 µM for each of these compounds?
molecular target: His6-PDK1 (aa 52-556) (Homo sapiens, UniProt O15530); construct: 15 μL His6-PDK1 (aa 52-556) 3.33 ng/well); host or cells: baculovirus-infected insect cells; assay: PDK1 kinase assay III (with Tween 20); assay type: biochemical; conditions: compound at 10 μM; PDK1 kinase assay III (values without asterisk); read-out: % CTL (residual activity of the enzyme relative to DMSO control)
One number for each entry, in %.

For every item in the list below, what is its measured remaining activity at 10 µM?
1. CN1CCC(Nc2ccc(Nc3ncc4cc(C#CCNC(=O)c5cn(C)c(=O)n(Cc6ccc(F)c(F)c6)c5=O)ccc4n3)cc2F)CC1
2. COC(=O)c1ccc(Nc2ncc3cc(/C=C/CNC(=O)c4cncn(Cc5ccc(F)c(F)c5)c4=O)ccc3n2)cc1Cl
3. COC(=O)c1ccc(Nc2ncc3cc(/C=C/CNC(=O)c4c(C)n(C)n(Cc5ccc(F)c(F)c5)c4=O)ccc3n2)cc1OC

Solution:
22.8
22.5
13.6

For every item in the list below, what is its measured remaining activity at 10 µM?
1. Cc1c(C(=O)NC/C=C/c2ccc3nc(Nc4ccc(C(=O)N(C)C5CCN(C)CC5)c(Cl)c4)ncc3c2)c(=O)n(Cc2ccc(F)c(F)c2)n1C
2. Cc1c(C(=O)NCC#Cc2ccc3nc(Nc4ccc(C(=O)NC5CCN(C)CC5)c(F)c4)ncc3c2)c(=O)n(Cc2ccc(F)c(F)c2)n1C
3. Cc1nc(/C=C2\C(=O)Nc3cc(/C=C/CNC(=O)c4cncn(Cc5ccc(F)c(F)c5)c4=O)ccc32)c[nH]1
4. Cc1c[nH]c(/C=C2\C(=O)Nc3cc(/C=C/CNC(=O)c4cncn(Cc5ccc(F)c(F)c5)c4=O)cc(F)c32)n1
5. O=C1Nc2cc(/C=C/CNC(=O)c3ccnn(Cc4ccc(F)c(F)c4)c3=O)ccc2/C1=C/c1cnc[nH]1
6. O=C(NC/C=C/c1ccc2ncncc2c1)c1cncn(Cc2ccc(F)c(F)c2)c1=O
7. Cc1c(C(=O)NC/C=C/c2ccc3nc(Nc4ccccn4)ncc3c2)c(=O)n(Cc2ccc(F)c(F)c2)n1C

Solution:
1: 15.8; 2: 11; 3: 10.7; 4: 23.1; 5: 17.5; 6: 18.8; 7: 22.7

For every item in the list below, what is its measured remaining activity at 10 µM?
1. NCCOc1cc(C#CCNC(=O)c2cncn(Cc3ccc(F)c(F)c3)c2=O)cc2cnc(Nc3ccc(N4CCOCC4)cc3)nc12
2. COc1ccc(Nc2ncc3cc(C#CCNC(=O)c4c(C)n(C)n(Cc5ccc(F)c(F)c5)c4=O)ccc3n2)cc1
3. CN(C)CCCNC(=O)c1ccc(Nc2ncc3cc(C#CCNC(=O)c4cncn(Cc5ccc(F)c(F)c5)c4=O)ccc3n2)cc1
4. Cc1c(C(=O)NC/C=C/c2ccc3nc(Nc4ccc(C(=O)NC5CCN(C)CC5)c(F)c4)ncc3c2)c(=O)n(Cc2ccc(F)c(F)c2)n1C
5. Cc1c[nH]c(/C=C2\C(=O)Nc3cc(/C=C/CNC(=O)c4cncn(Cc5ccc(F)c(F)c5)c4=O)ccc32)n1

Solution:
18.3
14.7
18.3
18.1
20.5

* * *

Would you kindly list remaining activity at 10 µM for each of these compounds?
Target: His6-PDK1 (aa 52-556) (Homo sapiens, UniProt O15530)
Construct: 15 μL His6-PDK1 (aa 52-556) 3.33 ng/well); host or cells: baculovirus-infected insect cells
Sequence (O15530 52-556): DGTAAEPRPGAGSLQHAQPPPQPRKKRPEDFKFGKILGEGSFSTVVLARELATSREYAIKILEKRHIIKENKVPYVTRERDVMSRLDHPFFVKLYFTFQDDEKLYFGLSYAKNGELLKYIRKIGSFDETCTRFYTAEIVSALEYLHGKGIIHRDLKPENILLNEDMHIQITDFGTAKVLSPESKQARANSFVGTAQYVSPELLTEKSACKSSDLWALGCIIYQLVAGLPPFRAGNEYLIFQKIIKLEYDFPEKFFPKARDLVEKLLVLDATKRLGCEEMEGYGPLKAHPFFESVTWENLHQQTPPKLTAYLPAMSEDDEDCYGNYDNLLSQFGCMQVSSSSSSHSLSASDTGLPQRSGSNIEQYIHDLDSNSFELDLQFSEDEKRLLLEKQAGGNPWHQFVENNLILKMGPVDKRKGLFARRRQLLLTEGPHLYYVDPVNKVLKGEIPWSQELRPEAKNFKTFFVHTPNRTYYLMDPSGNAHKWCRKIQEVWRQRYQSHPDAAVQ
Assay: PDK1 kinase assay III (with Tween 20)
Format: biochemical
Details: compound at 10 μM; PDK1 kinase assay III (values without asterisk); read-out: % CTL (residual activity of the enzyme relative to DMSO control)
Answers are plain numbers, in %.

{"compound": "O=C(NC/C=C/c1cc(OC2CCNCC2)c2nc(Nc3ccc(N4CCOCC4)cc3)ncc2c1)c1cncn(Cc2ccc(F)c(F)c2)c1=O", "remaining activity at 10 µM, %": 12.3}
{"compound": "O=C1Nc2cc(/C=C/CNC(=O)c3cccc(Nc4ccc(F)c(F)c4)n3)ccc2/C1=C/c1ccc[nH]1", "remaining activity at 10 µM, %": 36.9}
{"compound": "CN(C)Cc1ccc(Nc2ncc3cc(/C=C(\\F)CNC(=O)c4cncn(Cc5ccc(F)c(F)c5)c4=O)ccc3n2)cc1", "remaining activity at 10 µM, %": 13.7}
{"compound": "Cc1c(C(=O)NCC#Cc2ccc3nc(Nc4ccc(C#N)cc4)ncc3c2)c(=O)n(Cc2ccc(F)c(F)c2)n1C", "remaining activity at 10 µM, %": 19.8}
{"compound": "O=C(NC/C=C/c1ccc2nc(Nc3ccncc3)ncc2c1)c1cncn(Cc2ccc(F)c(F)c2)c1=O", "remaining activity at 10 µM, %": 12.1}

For every item in the list below, what is its measured remaining activity at 10 µM?
1. Cc1c(C(=O)NCC#Cc2ccc3nc(Nc4ccc(C(=O)NC5CCC(C)CC5)cc4)ncc3c2)c(=O)n(Cc2ccc(F)c(F)c2)n1C (stereo not shown)
2. O=C1Nc2cc(/C=C/CNC(=O)C3CCCN(Cc4ccc(F)c(F)c4)C3=O)ccc2/C1=C/c1cnc[nH]1 (stereo not shown)

Solution:
20.8
25.7
